Attribution: paper PMC8273886

- testedTarget: T1, mouse κ-opioid receptor (KOR) tagged with EGFP (mouse, UniProt P33534 1-380)
- T1 construct: κ-opioid receptor, mouse; cloned into the pEGFP-N1 vector with BamHI and HindIII; read as EGFP at the receptor's C-terminus; also called mouse KOR; KOR-EGFP; source: HEK293, stably expressing (membrane preparations; whole cells for cAMP); HEK293, transiently transfected (BRET); not shown: EGFP, C-terminal, kept
- T1 sequence (P33534 whole entry): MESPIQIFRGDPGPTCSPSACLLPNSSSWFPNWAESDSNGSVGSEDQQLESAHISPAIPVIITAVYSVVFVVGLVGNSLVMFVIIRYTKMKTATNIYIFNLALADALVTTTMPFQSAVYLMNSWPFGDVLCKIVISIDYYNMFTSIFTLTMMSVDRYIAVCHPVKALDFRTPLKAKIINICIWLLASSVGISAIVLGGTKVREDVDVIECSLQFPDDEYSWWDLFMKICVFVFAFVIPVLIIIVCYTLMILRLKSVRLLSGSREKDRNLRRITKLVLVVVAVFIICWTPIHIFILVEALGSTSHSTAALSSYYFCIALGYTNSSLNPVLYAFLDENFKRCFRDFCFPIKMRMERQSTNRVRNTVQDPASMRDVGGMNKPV
- testProtocol: radioligand binding; three concentrations of SFTI-1 (μM), displacement of 1 nM [3H]-diprenorphine on membranes of HEK293 cells stably expressing the mouse KOR
- conditionSummary: one partner purified
pKi: −log10 of the molar value. Bridge positions count the residues as written; N and C are the ends.
experimentalReadout: pKi

// recorded pKi for cyclo(CTKSIPPICFPDGR) (disulfide 1-9 (inferred), SFTI-1, 14-residue cyclic peptide from the seeds of sunflower (Helianthus annuus); The methods say that all peptides were synthesised; source: synthetic peptide (Fmoc chemistry, backbone cyclised, oxidised, RP-HPLC purified)) [sunflower trypsin inhibitor-1 (SFTI-1)] : < 4.52
